Form field: amyloid nucleation score (one value per entry).
Test: amyloid nucleation score (Sup35N fusion, yeast selection) (log enrichment); library NNK1; higher = more nucleation; inactive = no reads after selection;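 note: zero at mode of non-aggregating sequences after 7 days selection at 30°C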
Respond using a number only.

// known answers, use as guide
SUBSTANCE	PROPERTY MEASURED	RECORDED NUMBER
NGFLTSRCMLVCMKGMV	amyloid nucleation score	0.729
DFRKDWYWESPASRFFTNEV	amyloid nucleation score	0.44
LYPNRAGGRLAGLGGMPYE	amyloid nucleation score	0.085
YGRRGNFPSRWTSQHADIKF	amyloid nucleation score	-0.308
VVLRSGINL	amyloid nucleation score	-0.561

May I ask what amyloid nucleation score has been recorded for YYLIFHFDYHLVIYLW ?
0.707

Next substance up: HLGNSSNQIILHQCI
4.67

What do you get for ERHMYMSCWFTNY ?
0.777
